B1: TRIM55 (parent)
chain: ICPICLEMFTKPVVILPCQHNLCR

- Variants of: B1
- Test details: protein stability index of a GFP-peptide fusion (GPS, HEK-293T) (PSI 1-6); higher = more stable;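 note: lentivirally expressed fusions sorted by FACS into six bins by GFP to DsRed ratio, PSI derived from sequencing read proportions per bin multiplied by bin number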
- Condition context: c terminus: a fixed tail appended
Test readout: protein stability index
Answers are plain numbers.

Before answering, review these 5 worked examples.
| Seq text | Measured value |
| --- | --- |
| ICPICLEMFTKPVIILPCQHNLCR | 2.4 |
| ICPICLEMFTKPVVILPCKHNLCR | 2.01 |
| ICPICLEMFTKPVVILPCQWNLCR | 1.27 |
| ICPICLEMFTKPVVILPCYHNLCR | 2.31 |
| ICPICLEMFVKPVVILPCQHNLCR | 1.56 |

Need protein stability index for each of these variants.
1. ICPICLEMFTKPVVILPCQHNLYR
2. ICPICLEMFTKPCVILPCQHNLCR
3. ICPICLEMFTKPVVILPCQHNLAR
4. ICPICHEMFTKPVVILPCQHNLCR
5. ICPICLEMFTKPVDILPCQHNLCR
6. ICPICLEMFTKPVVELPCQHNLCR

1: 2.25; 2: 2.21; 3: 1.72; 4: 2.38; 5: 3.31; 6: 3.32

Need protein stability index for each of these variants.
1. ICPICLEGFTKPVVILPCQHNLCR
2. ICPICLEMFTKPVVHLPCQHNLCR
3. IVPICLEMFTKPVVILPCQHNLCR
4. ICQICLEMFTKPVVILPCQHNLCR

1. 2.11
2. 2.38
3. 2.11
4. 1.2

Need protein stability index for each of these variants.
1. IHPICLEMFTKPVVILPCQHNLCR
2. ICPICLEAFTKPVVILPCQHNLCR
3. ICPICPEMFTKPVVILPCQHNLCR
4. ICPICLEMFTKPVMILPCQHNLCR
5. ICPQCLEMFTKPVVILPCQHNLCR
6. ICPICLEIFTKPVVILPCQHNLCR
7. ICPICLEMFTKPVVILPCQHNLCS
8. ICPICLEMFTKPVVILSCQHNLCR

1. 1.96
2. 2.76
3. 2.69
4. 2.98
5. 3.02
6. 2.63
7. 1.85
8. 2.91

Need protein stability index for each of these variants.
1. ICPICLEMFTKPVVILPCQHNLER
2. ICPICLEMFDKPVVILPCQHNLCR
3. ICPICLEMFTKPVVILPDQHNLCR
4. ICPICLEMFIKPVVILPCQHNLCR
5. ICPICKEMFTKPVVILPCQHNLCR

1. 2.65
2. 2.48
3. 2.53
4. 1.83
5. 2.81

Need protein stability index for each of these variants.
1. ICPICLEMFTKPVVALPCQHNLCR
2. ICPICLEMFTKPVVILPCQHNRCR
3. ICPICLEMFTKPVVIFPCQHNLCR

1. 2.84
2. 2.51
3. 2.12

Need protein stability index for each of these variants.
1. ICPICLEMFTCPVVILPCQHNLCR
2. ICPICLEMFTKPVVILPCQHNQCR
3. ICPICLEMFTWPVVILPCQHNLCR
4. ICPICLEMFTKPVVNLPCQHNLCR
5. ICPICLNMFTKPVVILPCQHNLCR
6. ICPICTEMFTKPVVILPCQHNLCR

1: 2.51; 2: 2.72; 3: 1.93; 4: 2.5; 5: 1.53; 6: 2.51

Need protein stability index for each of these variants.
1. ICPICLEMFTKPVVILPSQHNLCR
2. ICPCCLEMFTKPVVILPCQHNLCR
3. ICPICLEMFTKPVVILPCQDNLCR
4. ICPYCLEMFTKPVVILPCQHNLCR
5. ICPICLEMFTSPVVILPCQHNLCR
6. ICPICLEMFTKPVFILPCQHNLCR
7. ICPICLEMFTKPVVILPNQHNLCR

2.23
1.83
2.14
2.69
2.67
2.49
1.81

Need protein stability index for each of these variants.
1. ICPICLEMFTKVVVILPCQHNLCR
2. ICPICLEMFTKPVVILPCQHNVCR
3. IAPICLEMFTKPVVILPCQHNLCR
4. ICPICLEMFTKSVVILPCQHNLCR
5. ICPICLSMFTKPVVILPCQHNLCR

[2.29, 2.55, 2.31, 2.59, 2.19]
